Reference source: patent US20060252807A1

Biological target: active p38 alpha enzyme (Upstate Biotechnology) (Homo sapiens, UniProt Q16539)
Construct: purchased Upstate Biotechnology
Sequence (Q16539 whole entry): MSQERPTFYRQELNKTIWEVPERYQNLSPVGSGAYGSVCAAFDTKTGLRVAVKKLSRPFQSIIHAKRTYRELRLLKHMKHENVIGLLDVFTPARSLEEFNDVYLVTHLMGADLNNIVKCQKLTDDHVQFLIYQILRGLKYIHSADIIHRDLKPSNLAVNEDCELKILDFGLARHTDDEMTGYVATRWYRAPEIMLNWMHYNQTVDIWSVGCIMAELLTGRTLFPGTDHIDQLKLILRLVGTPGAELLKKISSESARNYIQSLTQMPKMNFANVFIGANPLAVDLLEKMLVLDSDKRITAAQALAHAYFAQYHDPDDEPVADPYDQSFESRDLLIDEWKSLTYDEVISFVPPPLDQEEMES
Assay: p38α biochemical assay (ATP turnover, luminescent detection, Cambrex PKlight)
Details: p38α biochemical assay, Table 1 Biological Activity
# IC50 values compiled below

compound	endpoint-value
Cc1onc(-c2ccc(F)cc2)c1-c1nc(C(=O)NC(C)C)cs1	≤ 1000 nM
CC(C)NC(=O)c1csc(-c2oc(CN3CCN(C(=O)c4cnc(O)c(Cl)c4)CC3)nc2-c2ccc(F)cc2)n1	≤ 1000 nM
CC(C)NC(=O)c1csc(-c2oc(CN3CCN(C(=O)c4ccc(O)cc4O)CC3)nc2-c2ccc(F)cc2)n1	≤ 1000 nM
CCCCCc1ccc(C(=O)NCc2onc(-c3ccc(F)cc3)c2-c2nc(C(=O)NC(C)C)cs2)cc1	> 1000 nM
CC(=O)NC(Cc1ccc(O)cc1)C(=O)NCc1nc(-c2ccc(F)cc2)c(-c2nc(C(=O)NC(C)C)cs2)o1 (stereo not shown)	≤ 1000 nM
CC(C)NC(=O)c1csc(-c2oc(CNC(=O)c3cncc(Br)c3)nc2-c2ccc(F)cc2)n1	≤ 1000 nM
CC(C)NC(=O)c1csc(-c2oc(CN3CCN(C(=O)Cc4ccc(O)c(Cl)c4)CC3)nc2-c2ccc(F)cc2)n1	> 1000 nM
CC(C)NC(=O)c1csc(-c2oc(CN3CCN(C(=O)c4ccc(C#N)cc4)CC3)nc2-c2ccc(F)cc2)n1	> 1000 nM
Cc1ccccc1CCC(=O)N1CCN(Cc2nc(-c3ccc(F)cc3)c(-c3nc(C(=O)NC(C)C)cs3)o2)CC1	≤ 1000 nM
CC(C)NC(=O)c1csc(-c2c(-c3ccc(F)cc3)noc2CNC(=O)c2csc3ccccc23)n1	> 1000 nM

IN: // query IC50 value for entry CC(=O)c1ccc(C(=O)N2CCN(Cc3nc(-c4ccc(F)cc4)c(-c4nc(C(=O)NC(C)C)cs4)o3)CC2)cc1
OUT: > 1000 nM

IN: // query IC50 value for entry CCC(C(=O)N1CCN(Cc2nc(-c3ccc(F)cc3)c(-c3nc(C(=O)NC(C)C)cs3)o2)CC1)c1ccccc1 (stereo not shown)
OUT: > 1000 nM

IN: // query IC50 value for entry CC(C)NC(=O)c1csc(-c2oc(CN3CCN(C(=O)c4ccccc4C=O)CC3)nc2-c2ccc(F)cc2)n1
OUT: ≤ 1000 nM

IN: // query IC50 value for entry CC(C)NC(=O)c1csc(-c2oc(CNC(=O)C(C)(C)C)nc2-c2ccc(F)cc2)n1
OUT: ≤ 1000 nM

IN: // query IC50 value for entry Cc1cc(C)c(C(=O)N2CCN(Cc3nc(-c4ccc(F)cc4)c(-c4nc(C(=O)NC(C)C)cs4)o3)CC2)c(C)c1
OUT: ≤ 1000 nM

IN: // query IC50 value for entry CC(C)NC(=O)c1csc(-c2oc(CN3CCN(C(=O)C=O)CC3)nc2-c2ccc(F)cc2)n1
OUT: ≤ 1000 nM

* * *

Biological target: active p38 alpha enzyme (Upstate Biotechnology) (Homo sapiens, UniProt Q16539)
Construct: purchased Upstate Biotechnology
Test: p38α biochemical assay (ATP turnover, luminescent detection, Cambrex PKlight)
Details: p38α biochemical assay, Table 1 Biological Activity
readout: IC50

Look over these answered cases.
molecule	IC50
CC(C)NC(=O)c1csc(-c2oc(CN3CCN(C(=O)C(C)c4cccc(C(=O)c5ccccc5)c4)CC3)nc2-c2ccc(F)cc2)n1 (centres unmarked) [Example 567]	> 1000 nM
CC(C)NC(=O)c1csc(-c2oc(CNC(=O)c3ccccn3)nc2-c2ccc(F)cc2)n1 [Example 114]	> 1000 nM
CC(C)NC(=O)c1csc(-c2oc(CN3CCN(C(=O)C4CCCCC4)CC3)nc2-c2ccc(F)cc2)n1 [Example 355]	≤ 1000 nM
C#CCNC(=O)c1csc(-c2c(-c3ccc(F)cc3)n[nH]c2C2CCNCC2)n1 [Example 65]	≤ 1000 nM
Cc1onc(-c2ccc(F)cc2)c1-c1ccn(C(=O)NC(C)C)n1 [Example 18]	≤ 1000 nM
CC(C)NC(=O)c1csc(-c2oc(CN3CCN(C(=O)C(C)NC(=O)OC(C)(C)C)CC3)nc2-c2ccc(F)cc2)n1 (centres unmarked) [Example 484]	> 1000 nM
CC(C)NC(=O)c1csc(-c2oc(CN3CCN(C(=O)c4ccccc4Cc4ccccc4)CC3)nc2-c2ccc(F)cc2)n1 [Example 524]	≤ 1000 nM

# input for lookup
IN: Which measured IC50 belongs to CC(C)NC(=O)c1csc(-c2oc(CN3CCN(C(=O)c4cccc5ccccc45)CC3)nc2-c2ccc(F)cc2)n1 [Example 431] , tested on active p38 alpha enzyme (Upstate Biotechnology) (Homo sapiens, UniProt Q16539)?
OUT: ≤ 1000 nM
